// data source = ChEMBL document CHEMBL1149084

TEST DESCRIPTION: Inhibition of GST-tagged Plasmodium falciparum MetAP 1B by […]
MEASURED PROPERTY: IC50 (nM)
Write the answer as a number in nM, unit excluded.

// IC50 lookup, key: `Cc1nc(-c2ccccn2)nc(NCCc2ccccc2)c1Cl`
110
